- testName: Aqueous solubility at pH 6.5
- Type: physicochemical
measure: solubility

C[C@H](C1CC1)n1cc(C#N)nc(Nc2c(Cl)cc(OC(F)F)cc2Cl)c1=O: < 1 µg/mL
Cc1cn([C@H](C)C2CC2)c(=O)c(Nc2c(C)cc(Cl)cc2C)n1: 13 µg/mL

Now examine the next entry.
Q. Find the measured solubility of C[C@@H](C1CC1)n1cc(Cl)nc(Nc2c(Cl)cc(OC(F)F)cc2Cl)c1=O and report it.
A. < 1 µg/mL

====

Data export: log10 of IC50 values recorded with Corticotropin-releasing factor receptor 1 (Rattus norvegicus, UniProt P35353).
Sequence (P35353 whole entry): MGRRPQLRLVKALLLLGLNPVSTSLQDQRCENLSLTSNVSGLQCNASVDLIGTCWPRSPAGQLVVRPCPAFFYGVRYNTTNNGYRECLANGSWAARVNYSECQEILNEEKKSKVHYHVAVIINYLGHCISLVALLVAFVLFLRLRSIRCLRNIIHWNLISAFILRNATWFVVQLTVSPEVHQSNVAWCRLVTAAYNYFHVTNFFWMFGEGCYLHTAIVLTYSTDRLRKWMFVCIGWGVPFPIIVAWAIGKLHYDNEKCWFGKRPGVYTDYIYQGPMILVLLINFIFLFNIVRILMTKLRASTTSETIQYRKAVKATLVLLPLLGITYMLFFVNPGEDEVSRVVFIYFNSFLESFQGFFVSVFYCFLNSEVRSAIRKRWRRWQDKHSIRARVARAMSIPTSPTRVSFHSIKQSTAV
Transform log10 | Measure IC50 | Unit nM

Here's what some known entries look like.
C[C@@H](C1CC1)n1cc(Cl)nc(Nc2c(Cl)cc(C(F)(F)F)cc2Cl)c1=O: 0.90
Cc1cc(C)c(Nc2nc(Cl)cn([C@H](C)C3CC3)c2=O)cc1C: 0.68
C[C@H](C1CC1)n1cc(C#N)nc(Nc2c(Cl)cc(OC(F)F)cc2Cl)c1=O: 0.63
COC[C@@H](C1CC1)n1cc(Cl)nc(Nc2c(Cl)cc(C(F)(F)F)cc2Cl)c1=O: 0.20
C[C@H](C1CC1)n1cc(Cl)nc(Nc2cc3c(cc2Cl)OCC3)c1=O: 2.08
Cc1cc(C)c(Nc2nc(Cl)cn([C@H](C)C3CC3)c2=O)c(Cl)c1: -0.01

Now examine the next entry.
Q. Enter log10 of IC50 (test system Corticotropin-releasing factor receptor 1 (Rattus norvegicus, UniProt P35353)) for COc1cc(Cl)c(Nc2nc(Cl)cn([C@H](C)C3CC3)c2=O)cc1F
A. 0.91

====

Data export: log10 IC50 values recorded with Corticotropin-releasing factor receptor 1 (Rattus norvegicus, UniProt P35353).
Transform log10 | Measure IC50 | Unit nM

Here's what some known entries look like.
COCC(COC)Nc1nc(C)nc2c(-c3ccc(Cl)cc3Cl)c(C)nn12: 0.08
Cc1cc(Cl)c(Nc2nc(Cl)cn([C@H](C)C3CC3)c2=O)cc1C#N: 1.28
COc1cc(Cl)c(C)cc1Nc1nc(Cl)cn([C@H](C)C2CC2)c1=O: 1.56
CCOc1cc(C)c(Nc2nc(Cl)cn([C@H](C)C3CC3)c2=O)cc1C: 0.08

Q. Enter log10 IC50 (test system Corticotropin-releasing factor receptor 1 (Rattus norvegicus, UniProt P35353)) for CCCC(CCC)n1cc(Cl)nc(Nc2c(Cl)cc(C(F)(F)F)cc2Cl)c1=O
A. 0.57

Q. Enter log10 IC50 (test system Corticotropin-releasing factor receptor 1 (Rattus norvegicus, UniProt P35353)) for COCC(COC)n1cc(Cl)nc(Nc2c(Cl)cc(C(F)(F)F)cc2Cl)c1=O
A. 0.93

====

- testName: Intrinsic clearance in human liver microsomes at 1 uM
- Type: ADME, Microsome
# class assignment by measured CLint scaled at 1 µM: bin A (below 40 mL/min/kg), bin B (40 mL/min/kg to below 200 mL/min/kg), bin C (200 mL/min/kg or more)

These recorded examples may help you get a feel for the data.
CC[C@H](C1CC1)n1cc(Cl)nc(Nc2c(C)cc(Cl)cc2Cl)c1=O: bin C
CCOc1cc(C)c(Nc2nc(Cl)cn([C@H](C)C3CC3)c2=O)cc1C: bin A

Q. Where would CC[C@H](C1CC1)n1cc(Cl)nc(Nc2c(Cl)cc(OC)cc2Cl)c1=O land among the classes by reported CLint scaled at 1 µM?
A. bin C

Q. Where would Cc1cc(C)c(Nc2nc(Cl)cn([C@H](C)C3CC3)c2=O)c(C)c1 land among the classes by reported CLint scaled at 1 µM?
A. bin B

Q. Where would CC[C@H](COC)n1cc(Cl)nc(Nc2c(Cl)cc(C#N)cc2Cl)c1=O land among the classes by reported CLint scaled at 1 µM?
A. bin C

Q. Where would COc1cc(Cl)c(Nc2nc(Cl)cn([C@H](C)C3CC3)c2=O)c(Cl)c1 land among the classes by reported CLint scaled at 1 µM?
A. bin B

Q. Where would C[C@H](C1CC1)n1cc(C#N)nc(Nc2c(Cl)cc(C(F)(F)F)cc2Cl)c1=O land among the classes by reported CLint scaled at 1 µM?
A. bin A

Q. Where would C[C@H](C1CC1)n1cc(Cl)nc(Nc2c(Cl)cc(C#N)cc2Cl)c1=O land among the classes by reported CLint scaled at 1 µM?
A. bin B

Q. Where would CC[C@H](C1CC1)n1cc(Cl)nc(Nc2c(Cl)cc(C(F)(F)F)cc2Cl)c1=O land among the classes by reported CLint scaled at 1 µM?
A. bin B

Q. Where would CC[C@H](COC)n1cc(Cl)nc(Nc2c(Cl)cc(C(F)(F)F)cc2Cl)c1=O land among the classes by reported CLint scaled at 1 µM?
A. bin B

Q. Where would C[C@H](C1CC1)n1cc(Cl)nc(Nc2c(Cl)cc(C(F)(F)F)cc2Cl)c1=O land among the classes by reported CLint scaled at 1 µM?
A. bin A

Q. Where would COC[C@@H](C)n1cc(Cl)nc(Nc2c(Cl)cc(C(F)(F)F)cc2Cl)c1=O land among the classes by reported CLint scaled at 1 µM?
A. bin A

====

- testName: Oral bioavailability in Sprague-Dawley rat at 10 mg/kg dosed as aqueous suspension of 1% polysorbate 80 in 0.5% methylcellulose within 0.25 to 24 hrs
- Type: ADME, organism-based
- testContext: in vivo
List of bioavailability values.

Here's what some known entries look like.
C[C@H](C1CC1)n1cc(Cl)nc(Nc2c(Cl)cc(C(F)(F)F)cc2Cl)c1=O: 37%
C[C@H](C1CC1)n1cc(C#N)nc(Nc2c(Cl)cc(OC(F)F)cc2Cl)c1=O: 10%

Q. Find the measured bioavailability of Cc1cn([C@H](C)C2CC2)c(=O)c(Nc2c(C)cc(Cl)cc2C)n1 and report it.
A. 6%

Q. Find the measured bioavailability of C[C@@H](C1CC1)n1cc(Cl)nc(Nc2c(Cl)cc(OC(F)F)cc2Cl)c1=O and report it.
A. 5%

====

List of Vd values.
- testName: Volume of distribution at steady state in Sprague-Dawley rat 2 mg/kg, iv within 0.17 to 24 hrs
- Assay type: ADME, organism-based
- Parameters: dose 2 mg/kg, route intravenous
- testContext: in vivo, read-out: Vdss
Answer format: numeric, L/kg implied, no suffix.

Here's what some known entries look like.
C[C@H](C1CC1)n1cc(C#N)nc(Nc2c(Cl)cc(OC(F)F)cc2Cl)c1=O: 13
C[C@H](C1CC1)n1cc(Cl)nc(Nc2c(Cl)cc(C(F)(F)F)cc2Cl)c1=O: 24

Q. Find the measured Vd of C[C@@H](C1CC1)n1cc(Cl)nc(Nc2c(Cl)cc(OC(F)F)cc2Cl)c1=O and report it.
A. 4.7

Q. Find the measured Vd of Cc1cn([C@H](C)C2CC2)c(=O)c(Nc2c(C)cc(Cl)cc2C)n1 and report it.
A. 12

====

- testName: Cmax in Sprague-Dawley rat at 10 mg/kg, po dosed as aqueous solution of oleoyl macrogolglyceride/DMAC/polysorbate 80, 85:10:5 within 0.25 to 24 hrs
- Assay type: ADME, organism-based
- Parameters: dose 10 mg/kg, route oral
- testContext: Sprague-Dawley, in vivo
List of Cmax values.
# do not omit the unit; it follows the number

Cc1cn([C@H](C)C2CC2)c(=O)c(Nc2c(C)cc(Cl)cc2C)n1: 270 nM

Q. Find the measured Cmax of C[C@H](C1CC1)n1cc(C#N)nc(Nc2c(Cl)cc(OC(F)F)cc2Cl)c1=O and report it.
A. 1600 nM

====

- testName: Fraction unbound in Sprague-Dawley rat plasma at 10 mg/kg, po after 3 hrs by equilibrium dialysis
- Type: ADME, organism-based
- Design: dose 10 mg/kg, route oral
List of fraction unbound at 3 h values.

C[C@H](C1CC1)n1cc(C#N)nc(Nc2c(Cl)cc(C(F)(F)F)cc2Cl)c1=O: 0.011
C[C@H](C1CC1)n1cc(Cl)nc(Nc2c(Cl)cc(C#N)cc2Cl)c1=O: 0.019

Q. Find the measured fraction unbound at 3 h of C[C@@H](C1CC1)n1cc(Cl)nc(Nc2c(Cl)cc(OC(F)F)cc2Cl)c1=O and report it.
A. 0.0077

Q. Find the measured fraction unbound at 3 h of Cc1cc(C#N)cc(Cl)c1Nc1nc(Cl)cn([C@H](C)C2CC2)c1=O and report it.
A. 0.044

Q. Find the measured fraction unbound at 3 h of C[C@H](C1CC1)n1cc(Cl)nc(Nc2c(Cl)cc(C(F)(F)F)cc2Cl)c1=O and report it.
A. 0.0033

Q. Find the measured fraction unbound at 3 h of C[C@H](C1CC1)n1cc(C#N)nc(Nc2c(Cl)cc(OC(F)F)cc2Cl)c1=O and report it.
A. 0.03

Hello, the source for this data is ChEMBL document CHEMBL1158467, in case you need it.
